From: patent US20250034266A1

Items are presented alongside their recorded Max Inhibition (%).
# tested.target: T1, human CCR8 (human, UniProt P51685 1-355)
# T1 construct: whole, on cells; also called hCCR8
# T1 sequence (P51685 whole entry): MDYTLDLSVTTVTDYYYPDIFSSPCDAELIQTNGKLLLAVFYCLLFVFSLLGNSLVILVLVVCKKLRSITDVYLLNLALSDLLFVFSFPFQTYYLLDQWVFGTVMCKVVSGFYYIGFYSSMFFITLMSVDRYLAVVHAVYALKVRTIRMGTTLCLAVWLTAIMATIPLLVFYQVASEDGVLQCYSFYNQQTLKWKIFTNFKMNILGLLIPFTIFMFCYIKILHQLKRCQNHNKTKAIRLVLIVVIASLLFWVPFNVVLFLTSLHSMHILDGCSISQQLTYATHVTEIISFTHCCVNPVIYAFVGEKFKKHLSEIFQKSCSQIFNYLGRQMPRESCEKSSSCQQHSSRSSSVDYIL
# experimental.protocol: FACS, competition with CCL1 on CHO-K1-human CCR8 cells

binder	units	Max Inhibition (%)
Hu149-17 (antibody, human IgG1, V domains shown, human IgG1) VH: EVQLVESGGGLVQPGGSLKLSCAASGFTFNTYAMNWVRQASGKGLEWVGRIRSKSNFYATAYAASVKGRFTISRDDSKNTAYLQMNSLKTEDTAVYYCTRGRDYGSSYAMDYWGQGTLVTVSS VL: DIVMTQSPLSLPVTPGEPASISCRSSKSLLHSNANTYLYWFLQKPGQSPQLLIYRMSNLASGVPDRFSGSGSGTDFTLKISRVEAEDVGVYYCMQHLSYPLTFGGGTKVELK	%	100
Hu149-23 (antibody, human IgG1, V domains shown, human IgG1) VH: EVQLVESGGGLVQPGGSLKLSCAASGFTFNTYAMNWVRQAPGKGLEWVGRIRSKSNFYATAYAASVKGRFTISRDDSKNTAYLQMNSLKTEDTAVYYCTRGREYGSSYAMDYWGQGTLVTVSS VL: DIVMTQSPLSLPVTPGEPASISCRSSKSLLHSNANTYLYWFLQKPGQSPQLLIYRMSNLASGVPDRFSGSGSGTDFTLKISRVEAEDVGVYYCMQHLKYPLTFGGGTKVELK	%	103
Hu149-9 (antibody, human IgG1, V domains shown, humanized, human IgG1; also called Hu149-9 HuIgG1) VH: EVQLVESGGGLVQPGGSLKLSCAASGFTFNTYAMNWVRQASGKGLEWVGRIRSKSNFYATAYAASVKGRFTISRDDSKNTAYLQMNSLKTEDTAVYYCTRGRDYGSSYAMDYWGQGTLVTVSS VL: DIVMTQSPLSLPVTPGEPASISCRSSKSLLHSNANTYLYWFLQKPGQSPQLLIYRMSNLASGVPDRFSGSGSGTDFTLKISRVEAEDVGVYYCMQHLEYPLTFGGGTKVELK	%	99.2
